- target_system: Tyrosine-protein kinase SYK (Homo sapiens);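 note: reported percentages are mean inhibition values for SYK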
- condition_details: at 0.1 µM
measurement_kind: inhibition (%)

smiles_record | recorded_measurement
C[C@@H](Oc1cc(-n2cnc3ccc(OCC4CCN(C)CC4)cc32)sc1C(N)=O)c1ccccc1Cl | -0.18
COc1cccc(-n2cnc3c(N/N=C/c4ccncc4)ncnc32)c1 | 1.9
NC(=O)c1cc(-c2ccncc2)cc(-c2ccccc2)c1N | -0.73
COC(=O)Nc1nc2ccc(Sc3ccc(NC(=O)Nc4cc(C(F)(F)F)ccc4F)cc3)cc2[nH]1 | 0.25
COc1ccc(-c2ccc3c(NC(=O)C4CC4)n[nH]c3n2)cc1 | 0.08
Fc1ccc(-c2nc3n(c2-c2ccncc2)CCS3)cc1 | -6.2
NC(=O)Cc1ccccc1Oc1nccc(-c2c(-c3ccc(F)cc3)ncn2C2CCNCC2)n1 | -2.13
Cc1ccc(C(=O)NC2CCC2)cc1-c1ccc(C(=O)NCC2CC2)cc1 | -0.95
Fc1ccc(-c2ncn(C3CCNCC3)c2-c2ccnc(Oc3ccc(F)c(F)c3)n2)cc1 | -1.2
O=C1Nc2ccc(I)cc2C1=Cc1cc(Br)c(O)c(Br)c1 | 1.97
CNC(=O)c1cncc(/C=C/c2c(C)cccc2C)c1 | 0.05
Cc1ccc(NC(=O)c2ccoc2)cc1-c1ccc(C(=O)NCC2CC2)cc1 | -1.35
O=C(Nc1n[nH]c2nc(-c3ccco3)ccc12)C1CC1 | -0.47
CCc1nccc2c1nc(-c1nonc1N)n2CC | -1.01

* * *

- target_system: Vascular endothelial growth factor receptor 2 (Homo sapiens);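 note: each value is the mean percent inhibition of KDR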
- condition_details: at 1 µM
Label rule, in plain words: inhibition of 10% and up is MET, under 10% is NOT MET.

smiles_record | target_system | class
CN(C)CCCNc1nccc(-c2c(-c3ccc(F)cc3)nn3cc(C(F)(F)F)ccc23)n1 | Vascular endothelial growth factor receptor 2 (Homo sapiens) | MET
CCC(=O)Nc1ccc(C)c(-c2ccc(C(=O)NCC3CC3)cc2)c1 | Vascular endothelial growth factor receptor 2 (Homo sapiens) | NOT MET
COc1ccc(C2=C(N3CCc4ccccc43)C(=O)NC2=O)cc1 | Vascular endothelial growth factor receptor 2 (Homo sapiens) | MET
C[C@@H](Oc1cc(-n2cnc3ccc(OCC4CCN(C)CC4)cc32)sc1C(N)=O)c1ccccc1Cl | Vascular endothelial growth factor receptor 2 (Homo sapiens) | MET
COc1cc2ncn(-c3cc(OCCc4ccccc4)c(C(N)=O)s3)c2cc1OC | Vascular endothelial growth factor receptor 2 (Homo sapiens) | MET
CN(c1ccc(NC(=O)Nc2c(Cl)cccc2Cl)cc1)c1ccnc(Nc2cccc(CS(C)(=O)=O)c2)n1 | Vascular endothelial growth factor receptor 2 (Homo sapiens) | MET
C[C@@H](Oc1cc(-n2cnc3ccc(OC4CCN(C)CC4)cc32)sc1C(N)=O)c1ccccc1Cl | Vascular endothelial growth factor receptor 2 (Homo sapiens) | MET
O=C(Nc1n[nH]c2nc(-c3ccco3)ccc12)C1CC1 | Vascular endothelial growth factor receptor 2 (Homo sapiens) | MET
NC(=O)c1ccc(Oc2nccc(-c3c(-c4ccc(F)cc4)ncn3C3CCNCC3)n2)cc1 | Vascular endothelial growth factor receptor 2 (Homo sapiens) | NOT MET

* * *

- target_system: G protein-coupled receptor kinase 6 (Homo sapiens) (UniProt P43250);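 note: mean percent inhibition of GRK6, GSK PKIS screen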
- Sequence (P43250 whole entry, looked up): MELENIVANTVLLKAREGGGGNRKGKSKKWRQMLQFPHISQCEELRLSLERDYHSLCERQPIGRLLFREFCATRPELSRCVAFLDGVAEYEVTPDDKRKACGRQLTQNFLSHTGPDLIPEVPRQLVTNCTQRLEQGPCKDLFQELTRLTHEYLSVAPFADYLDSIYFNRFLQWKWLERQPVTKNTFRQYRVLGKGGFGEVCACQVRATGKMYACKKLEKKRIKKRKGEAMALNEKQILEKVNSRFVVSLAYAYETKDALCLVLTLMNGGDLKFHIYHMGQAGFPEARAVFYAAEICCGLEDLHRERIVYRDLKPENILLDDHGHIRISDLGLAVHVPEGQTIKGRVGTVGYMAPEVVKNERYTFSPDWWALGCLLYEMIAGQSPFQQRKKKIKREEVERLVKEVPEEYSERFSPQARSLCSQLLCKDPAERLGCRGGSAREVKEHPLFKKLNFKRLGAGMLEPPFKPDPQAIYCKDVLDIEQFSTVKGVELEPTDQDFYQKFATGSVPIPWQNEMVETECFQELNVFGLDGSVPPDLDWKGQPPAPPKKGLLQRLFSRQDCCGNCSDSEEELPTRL
- condition_details: at 0.1 µM

molecule | inhibition
COc1ccc2cc(-c3c(-c4ccncc4)nc(-c4ccc([S+](C)[O-])cc4C)n3C)ccc2c1 (stereo unspecified) | 2.06%
C/C(Nc1ccc(S(N)(=O)=O)cc1)=C1/C(=O)Nc2ccccc21 | -0.76%
COc1cc2ncn(-c3cc(OCc4cccs4)c(C(N)=O)s3)c2cc1OC | 4.35%
Cc1ccc(C(=O)NC2CCC2)cc1-c1ccc(C(=O)NCC2CC2)cc1 | 1.01%
CCS(=O)(=O)c1ccc(OC)c(Nc2ncc(-c3ccccc3Cl)o2)c1 | 2.4%
COc1cc2ncn(-c3cc(OCc4ccccc4C(F)(F)F)c(C(C)=O)s3)c2cc1OC | -0.96%
NS(=O)(=O)c1ccc(N/N=C2\C(=O)Nc3ccc(C(=O)NCCCn4ccnc4)cc32)cc1 | 5.79%
COc1cc2ncn(-c3cc(OCCc4ccccc4)c(C(N)=O)s3)c2cc1OC | -2.45%
Cc1ccc(C(=O)NC(C)C)cc1-c1ccc(C(=O)NCC2CC2)cc1 | -3.15%
COc1cccc(/C=N/Nc2ncnc3c2cnn3-c2cccc(OC)c2)c1 | 5.6%
O=C(Nc1n[nH]c2nc(-c3ccco3)ccc12)C1CC1 | 1.97%
Fc1ccc(-c2nc3n(c2-c2ccncc2)CCS3)cc1 | 2.79%
CCS(=O)(=O)c1ccc(OC)c(Nc2ncc(-c3cccc(-c4ccccc4F)c3)o2)c1 | 1.94%
CS(=O)(=O)CCNCc1ccc(-c2ccc3ncnc(Nc4ccc(OCc5ccccc5)c(Br)c4)c3c2)o1 | -2.27%
Clc1ccc(CNc2nccc(-c3cnn4ncccc34)n2)cc1 | 5.42%
NS(=O)(=O)c1ccc(Nc2cc(-c3ccc(O)c(F)c3)n[nH]2)cc1 | -2.35%
NC(=O)c1cc(-c2ccc(F)cc2)cc(-c2ccncc2)c1N | 5.99%
CCc1ccc(Oc2nccc(-c3c(-c4ccc(F)cc4)ncn3C3CCNCC3)n2)cc1 | 3.46%
Fc1ccc(-c2c(-c3ccncc3)nc3n2CCS3)cc1 | 5.32%
O=C1NC(=O)C(c2cccc(Cl)c2)=C1Nc1ccc(Cl)c(C(=O)O)c1 | 4.67%
Fc1ccc(-c2ncn(C3CCNCC3)c2-c2ccnc(Oc3ccc(Oc4ccccc4)cc3)n2)cc1 | 3.64%
